The entries that follow carry IC50 values tested on PIK3CB (Human) (UniProt P42338), drawn from several published reports.

Below, each entry is followed by its recorded IC50 result.
structure_as_smiles	IC50
C[C@H](Nc1ccc2c(c1)OCCn1cc(N3C(=O)CC[C@H]3CC#N)nc1-2)C(N)=O	1950 nM
Cc1cccc2cc(Cn3nc(-c4cccc(O)c4)c4c(N)ncnc43)n(C3CCCCC3)c(=O)c12	< 10000 nM

Challenge: Suppose we examine the molecule `CNC(=O)Nc1ccc(-c2nc(N3CCOC[C@@H]3C)nc3c2cnn3C2CCOCC2)cc1` ; what IC50 value has been reported?
Response given: > 100 nM

Challenge: Next record, please: `C[C@H](Nc1ncnc2[nH]cc(C#N)c12)c1cc2cccc(Cl)c2c(C(=O)N2CCOCC2)n1`
Response given: < 10000 nM

* * *

The entries that follow carry pIC50 values tested on PIK3CB (Human) (UniProt P42338), drawn from several published reports.
pIC50: −log10 of the molar value.

structure_as_smiles	pIC50
C[C@H](Nc1ncnc2[nH]cnc12)c1cc2cccc(Cl)c2c(C(=O)N2CCC(O)CC2)n1	< 5.00
COc1ccccc1-n1c(Cn2nc(-c3cccc(O)c3)c3c(N)ncnc32)nc2scc(C)c2c1=O	> 5.00
COc1ncc(-c2ccc3ncn(CC(C)(C)C(N)=O)c(=O)c3c2)cc1NS(=O)(=O)c1ccc(F)cc1Cl	6.38

Consider the record given below.
Challenge: Suppose we examine the molecule `Cc1cccc2cc([C@H](C)Nc3ncnc4[nH]cc(C#N)c34)n(C3CC3)c(=O)c12` ; what pIC50 value has been reported?
Response given: > 7.00

* * *

The entries that follow carry pIC50 values tested on PIK3CB (Human) (UniProt P42338), drawn from several published reports.
pIC50: −log10 of the molar value.

Below, each entry is followed by its recorded pIC50 result.
molecule	assay_metric	recorded_value
COc1ccc(-n2c([C@H](C)Nc3nc(N)ncc3C#N)cc3cccc(Cl)c3c2=O)cc1	pIC50	5.00 to 6.00
Cc1ccn(C2CCN(c3cnc4ccc(-c5ccc6oc(N)nc6c5)cc4n3)CC2)n1	pIC50	< 5.00
CNC(=O)C(C)Cn1cnc2ccc(-c3cnc(OC)c(NS(=O)(=O)c4cc(F)cc(F)c4)c3)cc2c1=O (single isomer, unassigned)	pIC50	6.35
Cc1nc2ccc(-c3ccc4oc(N)nc4c3)cn2c1C(=O)N1CCN(C)CC1	pIC50	< 5.00
C[C@H](Nc1ncnc2cccnc12)c1cc2cccc(-c3cnn(C)c3)c2c(OCCN2CCCC2)n1	pIC50	< 5.00

Challenge: Find pIC50 (PIK3CB (Human) (UniProt P42338)) for the entry `CC(C)N1CCC(Oc2nc([C@H](C)Nc3ncnc4cccnc34)cc3cccc(-c4cnn(C)c4)c23)CC1`
Response given: < 5.00

Challenge: Next record, please: `C#Cc1cccc2cc([C@H](C)NC(=O)c3c(N)nn4cccnc34)n(-c3ccccc3)c(=O)c12`
Response given: 6.00 to 7.00

Challenge: Next record, please: `Cc1cccc2cc([C@H](C)Nc3nc(Cl)nc4[nH]cnc34)n(C3CC3)c(=O)c12`
Response given: > 7.00

* * *

The entries that follow carry IC50 values tested on PIK3CB (Human) (UniProt P42338), drawn from several published reports.

Below, each entry is followed by its recorded IC50 result.
compound	recorded_value
Cc1nc2c(-c3nnc[nH]3)cc(-c3ccnc(N)c3F)cc2n1-c1ccnc2c(F)ccc(F)c12 (atropisomer, axis not shown)	3 nM
CS(=O)(=O)Nc1cc(-c2ccc3ncc(C(=O)N4CCOCC4)n3c2)ccc1Cl	> 10000 nM
Cc1cccc2cc([C@H](C)Nc3ncnc4ccccc34)n(-c3ccccc3)c(=O)c12	> 10000 nM
C[C@H](N)C(=O)N1CCN(c2cnc3ccc(-c4ccc5oc(N)nc5c4)nc3c2)CC1	< 1000 nM
Nc1nc2ccc(-c3ccc4nnc(C(=O)N5CCCC5)n4c3)cc2o1	> 10000 nM

Consider the record given below.
Challenge: Find IC50 (PIK3CB (Human) (UniProt P42338)) for the entry `CC(C)(C)c1nc2c(s1)CCc1nc(NC(=O)N3CC[C@H]3C(N)=O)sc1-2`
Response given: 2140 nM
